FYI, the data here is from patent US9457033B2.

MIC: recorded values
# Test system: S. aureus Newman
# measurement description: MIC, microdilution in CAMHB 24 h
# Assay type: cell-based, Staphylococcus aureus
# test parameters: Staphylococcus aureus; Newman; Human (Osteo); read-out: MIC
metric name: MIC (µg/mL)

CCn1cc(C(=O)O)c(=O)c2cc(F)c(N3CCNCC3)cc21 [Norfloxacin, norfloxacin]: 1
O=C(O)c1cn(C2CC2)c2cc(N3CCNCC3)c(F)cc2c1=O [Ciprofloxacin, ciprofloxacin]: 0.25
NC[C@H]1O[C@H](O[C@H]2[C@H](O)[C@@H](O[C@H]3O[C@H](CO)[C@@H](O)[C@H](N)[C@H]3O)[C@H](N)C[C@@H]2N)[C@H](O)[C@@H](O)[C@@H]1O [Kanamycin, kanamycin]: 4
CC[C@H]1OC(=O)[C@H](C)[C@@H](O[C@H]2C[C@@](C)(OC)[C@@H](O)[C@H](C)O2)[C@H](C)[C@@H](O[C@@H]2O[C@H](C)C[C@H](N(C)C)[C@H]2O)[C@](C)(O)C[C@@H](C)C(=O)[C@H](C)[C@@H](O)[C@]1(C)O [Erythromycin, erythromycin]: 0.5

###

Measured MIC accompanies every entry in the list below.
# System: S. aureus ATCC 29213
# measurement description: MIC, microdilution in CAMHB 24 h, with or without tomatidine/compound
# Format: cell-based, Staphylococcus aureus
# test parameters: Staphylococcus aureus, ATCC29213; ATCC 29213; Human (SSTI); read-out: MIC
metric name: MIC

CCn1cc(C(=O)O)c(=O)c2cc(F)c(N3CCNCC3)cc21: 1 to 2 µg/mL
CC[C@H]1OC(=O)[C@H](C)[C@@H](O[C@H]2C[C@@](C)(OC)[C@@H](O)[C@H](C)O2)[C@H](C)[C@@H](O[C@@H]2O[C@H](C)C[C@H](N(C)C)[C@H]2O)[C@](C)(O)C[C@@H](C)C(=O)[C@H](C)[C@@H](O)[C@]1(C)O: 0.5 µg/mL
NC[C@H]1O[C@H](O[C@H]2[C@H](O)[C@@H](O[C@H]3O[C@H](CO)[C@@H](O)[C@H](N)[C@H]3O)[C@H](N)C[C@@H]2N)[C@H](O)[C@@H](O)[C@@H]1O: 2 to 4 µg/mL
NC[C@H]1O[C@H](O[C@H]2[C@H](O)[C@@H](O[C@H]3O[C@H](CO)[C@@H](O)[C@H](N)[C@H]3O)[C@H](N)C[C@@H]2N)[C@H](N)C[C@@H]1O: 0.25 to 0.5 µg/mL

###

# System: S. aureus MA078038
# measurement description: MIC, microdilution in CAMHB 24 h
# Assay type: cell-based, Staphylococcus aureus
# test parameters: Staphylococcus aureus; MA078038; Human (CA); MRSA; read-out: MIC
Catalogue of MIC values
metric name: MIC

O=C(O)c1cn(C2CC2)c2cc(N3CCNCC3)c(F)cc2c1=O: 16 µg/mL
CC[C@H]1OC(=O)[C@H](C)[C@@H](O[C@H]2C[C@@](C)(OC)[C@@H](O)[C@H](C)O2)[C@H](C)[C@@H](O[C@@H]2O[C@H](C)C[C@H](N(C)C)[C@H]2O)[C@](C)(O)C[C@@H](C)C(=O)[C@H](C)[C@@H](O)[C@]1(C)O: 64 µg/mL
NC[C@H]1O[C@H](O[C@H]2[C@H](O)[C@@H](O[C@H]3O[C@H](CO)[C@@H](O)[C@H](N)[C@H]3O)[C@H](N)C[C@@H]2N)[C@H](N)C[C@@H]1O: 0.5 µg/mL
NC[C@H]1O[C@H](O[C@H]2[C@H](O)[C@@H](O[C@H]3O[C@H](CO)[C@@H](O)[C@H](N)[C@H]3O)[C@H](N)C[C@@H]2N)[C@H](O)[C@@H](O)[C@@H]1O: > 1020 µg/mL

###

# Test system: S. aureus CF7A-L
# measurement description: MIC, microdilution in CAMHB 24 h
# Type: cell-based, Staphylococcus aureus
# test parameters: Staphylococcus aureus; CF7A-L; Human (CF lungs); MRSA; read-out: MIC
metric name: MIC

NC[C@H]1O[C@H](O[C@H]2[C@H](O)[C@@H](O[C@H]3O[C@H](CO)[C@@H](O)[C@H](N)[C@H]3O)[C@H](N)C[C@@H]2N)[C@H](N)C[C@@H]1O: 1020 µg/mL
NC[C@H]1O[C@H](O[C@H]2[C@H](O)[C@@H](O[C@H]3O[C@H](CO)[C@@H](O)[C@H](N)[C@H]3O)[C@H](N)C[C@@H]2N)[C@H](O)[C@@H](O)[C@@H]1O: 256 to 512 µg/mL
O=C(O)c1cn(C2CC2)c2cc(N3CCNCC3)c(F)cc2c1=O: > 64 µg/mL
CCn1cc(C(=O)O)c(=O)c2cc(F)c(N3CCNCC3)cc21: > 64 µg/mL
CC[C@H]1OC(=O)[C@H](C)[C@@H](O[C@H]2C[C@@](C)(OC)[C@@H](O)[C@H](C)O2)[C@H](C)[C@@H](O[C@@H]2O[C@H](C)C[C@H](N(C)C)[C@H]2O)[C@](C)(O)C[C@@H](C)C(=O)[C@H](C)[C@@H](O)[C@]1(C)O: > 64 µg/mL

###

# Tested on: S. aureus Newbould
# measurement description: MIC, microdilution in CAMHB 24 h
# Assay type: cell-based, Staphylococcus aureus
# test parameters: Staphylococcus aureus; Newbould; Cow (mastitis); read-out: MIC
metric name: MIC (µg/mL)

CC[C@H]1OC(=O)[C@H](C)[C@@H](O[C@H]2C[C@@](C)(OC)[C@@H](O)[C@H](C)O2)[C@H](C)[C@@H](O[C@@H]2O[C@H](C)C[C@H](N(C)C)[C@H]2O)[C@](C)(O)C[C@@H](C)C(=O)[C@H](C)[C@@H](O)[C@]1(C)O [Erythromycin, erythromycin]: 0.5
O=C(O)c1cn(C2CC2)c2cc(N3CCNCC3)c(F)cc2c1=O [Ciprofloxacin, ciprofloxacin]: 0.25
CCn1cc(C(=O)O)c(=O)c2cc(F)c(N3CCNCC3)cc21 [Norfloxacin, norfloxacin]: 0.5
NC[C@H]1O[C@H](O[C@H]2[C@H](O)[C@@H](O[C@H]3O[C@H](CO)[C@@H](O)[C@H](N)[C@H]3O)[C@H](N)C[C@@H]2N)[C@H](O)[C@@H](O)[C@@H]1O [Kanamycin, kanamycin]: 4

###

The compounds listed here are annotated with their MIC.
# Tested on: S. aureus ATCC BAA-41
# measurement description: MIC, microdilution in CAMHB 24 h
# Type: cell-based, Staphylococcus aureus
# test parameters: Staphylococcus aureus, ATCC BAA-41 / MRSA; ATCC BAA-41; Human (HA); MRSA; read-out: MIC
metric name: MIC

NC[C@H]1O[C@H](O[C@H]2[C@H](O)[C@@H](O[C@H]3O[C@H](CO)[C@@H](O)[C@H](N)[C@H]3O)[C@H](N)C[C@@H]2N)[C@H](N)C[C@@H]1O: 512 µg/mL
CC[C@H]1OC(=O)[C@H](C)[C@@H](O[C@H]2C[C@@](C)(OC)[C@@H](O)[C@H](C)O2)[C@H](C)[C@@H](O[C@@H]2O[C@H](C)C[C@H](N(C)C)[C@H]2O)[C@](C)(O)C[C@@H](C)C(=O)[C@H](C)[C@@H](O)[C@]1(C)O: > 64 µg/mL
NC[C@H]1O[C@H](O[C@H]2[C@H](O)[C@@H](O[C@H]3O[C@H](CO)[C@@H](O)[C@H](N)[C@H]3O)[C@H](N)C[C@@H]2N)[C@H](O)[C@@H](O)[C@@H]1O: 256 to 512 µg/mL
O=C(O)c1cn(C2CC2)c2cc(N3CCNCC3)c(F)cc2c1=O: > 64 µg/mL

###

# Test system: S. aureus CF07-L (normal strain)
# measurement description: MIC, microdilution in BHI 48 h (Examples 1, 3)
# Type: cell-based, Staphylococcus aureus
# test parameters: CF07-L + HQNO at 20 μg/ml
# key: entry, value: MIC
metric name: MIC

CC[C@H]1OC(=O)[C@H](C)[C@@H](O[C@H]2C[C@@](C)(OC)[C@@H](O)[C@H](C)O2)[C@H](C)[C@@H](O[C@@H]2O[C@H](C)C[C@H](N(C)C)[C@H]2O)[C@](C)(O)C[C@@H](C)C(=O)[C@H](C)[C@@H](O)[C@]1(C)O: 0.25 µg/mL
Cc1onc(-c2ccccc2)c1C(=O)N[C@@H]1C(=O)N2[C@@H]1SC(C)(C)[C@@H]2C(=O)O: 0.06 to 0.12 µg/mL
O=C(O)c1cn(C2CC2)c2cc(N3CCNCC3)c(F)cc2c1=O: 0.25 µg/mL
C[C@H]1CC[C@]2(NC1)O[C@H]1C[C@H]3[C@@H]4CC[C@H]5C[C@@H](O[C@@H]6O[C@H](CO)[C@H](O[C@@H]7O[C@H](CO)[C@@H](O)[C@H](O[C@@H]8OC[C@@H](O)[C@H](O)[C@H]8O)[C@H]7O[C@@H]7O[C@H](CO)[C@@H](O)[C@H](O)[C@H]7O)[C@H](O)[C@H]6O)CC[C@]5(C)[C@H]4CC[C@]3(C)[C@H]1[C@@H]2C: >16 µg/mL
CN[C@H](CC(C)C)C(=O)N[C@H]1C(=O)N[C@@H](CC(N)=O)C(=O)N[C@H]2C(=O)N[C@H]3C(=O)N[C@H](C(=O)N[C@H](C(=O)O)c4cc(O)cc(O)c4-c4cc3ccc4O)[C@H](O)c3ccc(c(Cl)c3)Oc3cc2cc(c3O[C@@H]2O[C@H](CO)[C@@H](O)[C@H](O)[C@H]2O[C@H]2C[C@](C)(N)[C@H](O)[C@H](C)O2)Oc2ccc(cc2Cl)[C@H]1O: 2 µg/mL
C[C@H]1CC[C@]2(NC1)O[C@H]1C[C@H]3[C@@H]4CC[C@H]5C[C@@H](O)CC[C@]5(C)[C@H]4CC[C@]3(C)[C@H]1[C@@H]2C: 0.5 µg/mL
